Assayed System: T1, hIL-4R on cells (STAT6-transfected HEK293, TF1, TF1/A12) (human, UniProt P24394 26-825)
T1 sequence (looked up): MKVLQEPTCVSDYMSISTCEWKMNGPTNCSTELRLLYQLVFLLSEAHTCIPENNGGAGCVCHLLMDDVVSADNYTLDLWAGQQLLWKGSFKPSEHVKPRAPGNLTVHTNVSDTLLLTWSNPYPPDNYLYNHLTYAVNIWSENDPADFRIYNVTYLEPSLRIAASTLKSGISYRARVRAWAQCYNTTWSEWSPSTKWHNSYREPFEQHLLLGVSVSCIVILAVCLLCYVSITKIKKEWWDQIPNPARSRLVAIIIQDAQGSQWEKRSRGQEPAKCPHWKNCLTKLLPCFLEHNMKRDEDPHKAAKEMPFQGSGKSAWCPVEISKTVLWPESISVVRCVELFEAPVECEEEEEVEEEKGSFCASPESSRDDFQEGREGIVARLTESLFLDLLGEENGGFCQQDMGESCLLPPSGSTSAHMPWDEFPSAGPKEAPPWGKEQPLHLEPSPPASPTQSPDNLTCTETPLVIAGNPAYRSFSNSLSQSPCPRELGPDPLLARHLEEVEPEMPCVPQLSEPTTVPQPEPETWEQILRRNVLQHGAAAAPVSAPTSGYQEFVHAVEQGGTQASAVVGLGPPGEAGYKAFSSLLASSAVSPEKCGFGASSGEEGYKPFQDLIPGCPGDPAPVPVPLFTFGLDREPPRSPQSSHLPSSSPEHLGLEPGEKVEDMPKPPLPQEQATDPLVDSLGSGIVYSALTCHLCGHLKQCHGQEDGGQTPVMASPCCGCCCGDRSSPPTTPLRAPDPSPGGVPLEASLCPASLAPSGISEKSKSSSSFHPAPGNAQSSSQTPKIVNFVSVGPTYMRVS
Experimental Details: cell-based or functional assay
Please go through the items and note down their STAT6 Bioassay IC50 (HEK293 STAT6 luciferase, 40 pM hIL-13).

1. VAB 6C10-14 (antibody, V domains shown, Apparently tested with mouse constant region (anti-mouse IgG capture/detection)) VH: QVQLVQSGAEVKKPGASVKVSCKASGYTFTNYGLTWVRQAPGRGLEWMGWISVYNGNTNYAQTLKGRVTMTTDTSTSTAYMELKSLRSDDTAVYYCARGSGYDFDYWGQGTLVTVSS VL: AIQMTQSPSSLSASVGDRVAITCRASQDIRNDLGWYQQKPGKAPKLLIHTASSLQSGVPSRFSGSGSGTDFTLTISNLQPEDFATYYCLQDNSYPYTFGQGTKLEIN: > 10 nM
2. VX 4E7-9 (antibody, V domains shown, 387/389; Apparently tested with mouse constant region (anti-mouse IgG capture/detection)) VH: QVQLVQSGAEVKKPGASVKVSCKASGYTFTNYGISWVRQAPGQGLEWMGWISVYNGKTNYAQKLQGRVTMTTDTSTTTAYMEMRSLRSDDTAVYYCARGSGYDLDYWGQGTLVSVSS VL: AIQMTQSPSSLSASVGDRVTITCRASQGIRNALGWYQQKPGKAPKLLIYAASSLQSGVPSRFSGSGSGTDFTLTFSSLQPEDFATYYCLQDFNYPYTFGQGTKLEIK: 6.3 nM
3. VAK7G8-5 (antibody, V domains shown, Apparently tested with mouse constant region (anti-mouse IgG capture/detection)) VH: QVRLVESGGGVVQPGGSLRLSCTASGFIFRSYGMHWVRQAPGRGLEWVAVISYDGSKTFYVDSVKVRFTISRDNSKNTLYLEMNSLRVDDTAVYFCVKEGRSGSWFDPWGQGTLVAVSS VL: DIHMTQSPSSLSASVGDRVTITCRASQAINNFLAWFQQKPGKTPKSLIFATSSLQSGVPSRFSGSGSGTDFTLTISSLQPEDFATYYCQQYNSHPWTFGQGTKVEIR: 40 pM

// input: 4 binders below; output: STAT6 Bioassay IC50 (HEK293 STAT6 luciferase, 40 pM hIL-13) for each
1. VAB 10G8-19 (antibody, V domains shown, Apparently tested with mouse constant region (anti-mouse IgG capture/detection)) VH: QVQLVQSGAEVKKPGASVKVSCKASRYTFTSYDINWVRQATGQGLEWMGWMNPNSGNTGYAQKFQGRVTMTRNTSTSTAYMELSSLRSEDTAVYYCARVRRFFDYWGQGTLVTVSS VL: DIQLTQSPSFLSASVGDRVTITCWASQGIISYLAWYQQKPGKAPKLLIYAASTLHSGVPSRFSGSGSGTEFTLTISSLQPEDFATYYCHQLKSYPITFGQGTRLEIK
2. VAB 4D5-3 (antibody, V domains shown, Apparently tested with mouse constant region (anti-mouse IgG capture/detection)) VH: QVQLVQSGPEVKKPGASVKVSCKASGYTFTNYGISWVRQAPGQGLEWMGWISVYNGKTNYAQKFQGRVTMTTDTSTSTAYMDLRSLRSDDTAVYYCARGSGYDFDYWGQGTLVTVSS VL: AIQMTQSPSSLSASVGDRVTITCRASQGIRNALGWYQQKPGKAPKLLIFASSSLQSGVPSRFSGSGSGTDFTLTIRSLQPEDFAAYYCLQDYNYPYTFGQGTKLEIK
3. VAK10G6-7 (antibody, V domains shown, Apparently tested with mouse constant region (anti-mouse IgG capture/detection)) VH: QVQLVESGGGVVQPGRSLRLSCTASGFTFSSFGMHWVRQAPGRGLEWVAVISYDGSKKYYADSVKVRFTISRDNSKNTLYLQMNSLRVDDTAVYFCAKEGRTGNWFDPWGQGTLVAVSS VL: DIQMTQSPSSLSASVGDRVTITCRASQAINNYLAWFQQKPGKTPKSLIFATSSLQSGVPSRFSGTGSGTDFTLTISSLQPEDFATYYCQQYNSHPWTFGQGTKVEIR
4. VAK10G12-5 (antibody, V domains shown, Apparently tested with mouse constant region (anti-mouse IgG capture/detection)) VH: QVQLVESGGGVVQPGGSLRLSCAASGFTFSSYGMHWVRQAPGRGLEWVAVLSYDGSKEFYADSVKVRFTVSRDNSKNTLYLQMSSLRVEDTAIYFCAKEGRTGNWFDPWGQGTLVAVSS VL: DIQMTQSPSSLSASVGDRVTITCRASQAINNFLAWFQQKPGKTPKSLIFATSSLQSGVPSRFSGSESGTDFTLTISSLQPEDFATYYCQQYNSHPWTFGQGTKVEIK

Result:
["0.97 nM", "3.3 nM", "70 pM", "0.26 nM"]
